- TARGET: SALL4 ZFC4 R900W (HT-SELEX) (Mus musculus, UniProt Q8BX22 870-940, R900W)
- Sequence: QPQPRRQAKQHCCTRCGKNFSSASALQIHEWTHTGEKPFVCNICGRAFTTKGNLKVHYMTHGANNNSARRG
- ASSAY_PROTOCOL: HT-SELEX; high values mean tight binding
- CONDITION_NOTES: protein: recombinant; vector His6-GST; dsDNA, one strand shown
MEASUREMENT_NAME: binding signal (fold-change vs cycle 0)

SEQUENCE_CODE	UNITS_TEXT	READING
ATCTGC	fold-change vs cycle 0	0.711
GCTCTA	fold-change vs cycle 0	0.686
GCCTTA	fold-change vs cycle 0	0.685
CTGAAG	fold-change vs cycle 0	1.01
AGGAAC	fold-change vs cycle 0	1.02
CTAACC	fold-change vs cycle 0	0.983
CACGAA	fold-change vs cycle 0	0.706
TCTCCA	fold-change vs cycle 0	0.992
AACTCC	fold-change vs cycle 0	1.02
